- Target System: HLA-B*07 (Homo sapiens, UniProt P01889)
- Assay Method Text: MHC binding assay (UV-ligand exchange, ELISA of stabilized MHC complexes)
- Recorded Conditions: peptide exchange yield on HLA-B*07, UV-ligand exchange
Assay Endpoint: Peptide exchange

Consider the following illustrative entries.
Substance: 309 (FAFYGGKSL; listed as Homo sapiens) [compound 309]
Peptide exchange: +++ (>50 = +++)
--
Substance: 374 (KPRNMTGLDL; listed as Homo sapiens) [compound 374]
Peptide exchange: ++++ (>75% = ++++)
--
Substance: 274 (KPIRTGISPLAL; listed as Homo sapiens) [compound 274]
Peptide exchange: +++ (>50 = +++)
--
Substance: 19 (WPRLPGAGL; listed as Homo sapiens) [compound 19]
Peptide exchange: +++ (>50 = +++)
--
Substance: 293 (FPYDKPLIM; listed as Homo sapiens) [compound 293]
Peptide exchange: ++++ (>75% = ++++)

Need Peptide exchange for each of these substances.
1. 132 (LPRLPVGSLV; listed as Homo sapiens) [compound 132]
2. 87 (APVGGNVTSSF; listed as Homo sapiens) [compound 87]
3. 345 (SAAPPGASL; listed as Homo sapiens) [compound 345]
4. 469 (LPLDTRTSI; listed as Homo sapiens) [compound 469]

Data returned:
["++++ (>75% = ++++)", "+++ (>50 = +++)", "+++ (>50 = +++)", "++++ (>75% = ++++)"]
